System: SR leukemia
Assay: NCI-60 one-dose screen, 48 h (100 = growth as untreated, 0 = no growth, -100 = all killed)
Settings: 10 µM
About 83,000 compounds went through this panel and 20% of them were active in at least one assay; those are over-represented in the sample as a whole. The source made the active and inactive calls. The calls were made as follows: active = growth percent below 10; inactive = the rest.

compound	growth
N=C(N)c1ccc(-c2ccc(-c3cccs3)s2)nc1	-9.12% (active)
N#Cc1c2c([nH]c(=O)c1C(N)=O)CCCCC2	108% (inactive)
COc1ccc(-c2cc(/C=C/C(=O)c3ccc(N)cc3)[nH]n2)cc1OC	10.3% (inactive)
CCc1ccc(-c2nnc(COc3ccc(-c4nc5ccccc5[nH]4)cc3OC)o2)cc1	-8.81% (active)
CCOC(=O)c1sc(NC(=O)c2cc(OC)c(OC)c(OC)c2)nc1C	79% (inactive)
FC(F)(F)c1ccc(-c2nc(-c3nc4cc(Cl)c(Cl)cc4[nH]3)c3ccccn23)cc1	84.2% (inactive)
CC(=O)Nc1nc(C)c(C(=O)N/N=C/c2cccn2C)s1	107% (inactive)
Clc1cc(Cl)c(OCCCCCCN2CCNCC2)c(Cl)c1	-13.9% (active)
O=C1/C(=C/c2ccc(O)cc2O)N=C2SCCCN12	89.8% (inactive)
CCN(CC)CCn1c(=N)n(CC(O)c2ccc(Cl)c(Cl)c2)c2ccccc21 (configuration not stated)	26.4% (inactive)
NC(=O)c1ccc(Br)o1	97.4% (inactive)
Cc1cccc2c(Nc3ccc(NS(C)(=O)=O)cc3)c3ccc([N+](=O)[O-])cc3nc12	2.56% (active)
COc1ccc(C(C)=O)cc1N1C(=O)C2C(C1=O)C1(c3ccccc3)C(=O)C2(c2ccccc2)C(c2ccc(C)cc2)=C1c1ccc(C)cc1 (configuration not stated)	8.77% (active)
Fc1ccc2[nH]c3c(NCCCN4CCOCC4)ncnc3c2c1	52.1% (inactive)
COc1cc(C2=Nc3c/c(=C\c4c(O)[nH]c5ccc(Cl)cc45)ccc3=N2)cc(OC)c1OC	-18% (active)
COc1ccc(C2C=C(c3ccc(Cl)c(Cl)c3)N=C3SC(C)=CN32)cc1 (configuration not stated)	9.84% (active)
CCOC(=O)[C@@H]1[C@H](c2ccccc2)[C@H]([N+](=O)[O-])[C@H](c2cn(-c3ccccc3)nc2C)N1Cc1ccccc1	46.9% (inactive)
COc1ccc(COC(=O)CC(C)C)cc1	97.1% (inactive)
CCN(CC)CC(O)CNc1ccnc2cc(Cl)c(Cl)cc12 (configuration not stated)	28.4% (inactive)
Cc1ccc(S(=O)(=O)Oc2ccccc2-c2ccccc2)cc1	8.73% (active)
CC(C)c1ncc(CO)n1Cc1c(Cl)cccc1Cl	97.4% (inactive)
Cc1cc(Nc2cccc(F)c2)nc(NCc2ccccc2)n1	23% (inactive)

###

Test system: OVCAR-5 ovarian
Assay: NCI-60 one-dose screen, 48 h (100 = growth as untreated, 0 = no growth, -100 = all killed)
Details: 10 µM
The panel holds about 83,000 compounds, 20% with a hit somewhere; the sample as a whole holds those more often.

compound	readoutUnit	growth
CC(=O)Nc1nc(C)c(C(=O)N/N=C/c2cccn2C)s1	%	110
CN1CCN(c2nc(-c3cccnc3)nc3sc4c(c23)CCCCCC4)CC1	%	104
CCCCCCCCCCCCCCCC(=O)N1CCN(C)CC1	%	86.3
CCCCCCCCCCCCCC[n+]1ccccc1	%	5.24
COc1cccc(C(=O)N(c2ccc(F)c(F)c2)C(C(=O)NC(C)(C)C)c2cc3c(C)cc(C)cc3nc2Cl)c1 (centres undefined)	%	86.5
CCn1nc(-c2ccccn2)c2cccnc2c1=S	%	97
COc1cc(-c2cc(-c3cc(OC)c(OC)c(OC)c3)nc3nc(N)[nH]c(=O)c23)ccc1Oc1ccnc2cc(Cl)ccc12	%	103
O=C1c2cc(Cl)ccc2-c2c(O)cc(Cl)cc21	%	101
O=[N+]([O-])c1ccc(S(=O)(=O)OCCCCOS(=O)(=O)c2ccc([N+](=O)[O-])cc2)cc1	%	103
COC(=O)[C@]12CC[C@@H](C)[C@H](C)[C@@H]1C1=CC[C@@H]3[C@@]4(C)CC(=O)[C@H](O)[C@@]5(C)COC(=C45)C[C@@]3(C)[C@]1(C)CC2	%	-40.4
COc1c(-c2c3sc(=O)[nH]c3nc3c2c(=O)[nH]n3C(C)C)cc2c(c1OC)OCO2	%	96.7
Cc1ccccc1[P+](Cc1ccccc1)(c1ccccc1)c1ccccc1	%	52
COc1cccc(-c2nnc(COc3ccc(-c4nc5ccc(C)cc5[nH]4)cc3OC)o2)c1	%	103
Cc1cccc2c(Nc3ccc(NS(C)(=O)=O)cc3)c3ccc([N+](=O)[O-])cc3nc12	%	49.9
C=CCNC(=S)NN	%	69.7
CC(=O)Nc1ccc2c(c1)C(N1CC3CCC(CC3)C1)c1ccccc1-2 (centres undefined)	%	95.8
CC(=O)Nc1ccc(Sc2ccc(NC(C)=O)cc2)cc1	%	95.8
CC(C)(C)c1ccc(OCCCCCCN2CCNCC2)cc1	%	82.2
COc1cccc(C2(C)Nc3ccccc3-c3nc4ccccc4n32)c1 (centres undefined)	%	109
CC(C)c1[nH]nc2c(NCc3ccc(-c4ccccn4)cc3)nc(SCCN(C)C)nc12	%	21.4
O=C/C=C/c1ccc([N+](=O)[O-])cc1Cl	%	115
COc1ccc(C2C=C(c3ccc(Cl)cc3)N=C3SC=CN32)c(Br)c1 (centres undefined)	%	98.2
Cc1cc(C#Cc2ccccc2)ccc1-n1c(/C=C/c2cc(O)ccc2O)nc2ccccc2c1=O	%	-24.5
COC(=O)c1ccc(Cn2ccc(=O)[nH]c2=O)cc1	%	104
O=[N+]([O-])c1ccc2c(c1)Cc1cc(I)ccc1-2	%	97
CCCCCCN=C(N)CCCCCCCCCCC(N)=NCCCCCC	%	49.1
Oc1cc(O)c(Br)cc1Br	%	107
O=C(CCc1ccccc1)N1CCN(C(=O)CCc2ccccc2)CC1	%	110
C/C(=N\NC(=S)N1CCCC1)c1ccccn1	%	40.3
N#Cc1cnc2ccc(NCc3cnc[nH]3)cc2c1Nc1ccc(F)c(Cl)c1	%	82.7
CC(C)=C1CCC(C)C/C1=N\N=C(N)N (centres undefined)	%	110
O=C(Nc1cccc(F)c1)Nc1cccc(Cl)c1	%	94.9
COc1ccc(C(=O)n2nc(CC(=O)NCc3ccccc3)nc2N)cc1	%	113
CC(=O)N(O)c1ccc(/C=C/c2ccccc2)cc1	%	33.1
CC(C)C[C@H](NC(=O)CCn1ccc2ccccc2c1=O)B(O)O	%	65.6
COc1ccc(-c2nc(-c3ccccc3)c(-c3ccccc3)[nH]2)cc1OC1CCCC1	%	82.7
[O-]c1c[n+](-c2ccc(Cl)cc2)no1	%	96.7
CCCCCC(CCC)COC(=O)c1ccc(OC)cc1 (centres undefined)	%	102
C[C@]12CC[C@H]3[C@@H](CCC4=CC(=O)CC[C@@]43C)[C@@H]1CC[C@@H]2c1csc(N)n1	%	99.8
CCCCCCCCCCCCCC[n+]1ccc(C)cc1	%	3.81
CC(=O)Oc1c(C)c(C)c2c(c1C)CCC(C)(CC(=O)OCCCCCCCCCCC[P+](c1ccccc1)(c1ccccc1)c1ccccc1)O2 (centres undefined)	%	-37.4
Cc1cccc2c1O/C(=C\c1ncc([N+](=O)[O-])n1C)C2=O	%	-15.7
Cc1cc(OI)c(C(C)C)cc1-c1cc(C(C)C)c(OI)cc1C	%	94.4
C=CCN1C(=O)/C(=C\c2ccc3c(c2)CCC3)SC1=S	%	99.8
